# system-under-test: affinity purified β2GPI-dependent antiphospholipid antibody
# measurement-protocol: Competitive inhibition ELISA: recombinant β2GPI proteins compete for antibody binding to coated full length recombinant β2GPI
# Design: species or system human
# recorded-conditions: Ab 6203; read-out: 50% (concentration to give 50% inhibition)
pIC50: −log10 of the molar value.
readout: pIC50

A selection of reference data follows.
Return reported pIC50; argument: --345: recombinant β2GPI deletion mutant with domains 3, 4, 5 (protein) GRIICPPPSIPTFATLRVYKPSAGNNSLYRDTAVFECLPQHAMFGNDTITCTTHGNWTKLPECREVKCPFPSRPDNGFVNYPAKPTLYYKDKATFGCHDGYSLDGPEEIECTKLGNWSAMPSCKASCKLPVKKATVVYQGERVKIQEKFKNGMLHGDKVSFFCKNKEKKCSYTEDAQCIDGTIEVPKCFKEHSSLAFWKTDASDVKPCGHHHHHH < 4.30

Return reported pIC50; argument: -2345: recombinant β2GPI deletion mutant with domains 2-5 (protein) GRTPRVCPFAGILENGAVRYTTFEYPNTISFSCNTGFYLNGADSAKCTEEGKWSPELPVCAPIICPPPSIPTFATLRVYKPSAGNNSLYRDTAVFECLPQHAMFGNDTITCTTHGNWTKLPECREVKCPFPSRPDNGFVNYPAKPTLYYKDKATFGCHDGYSLDGPEEIECTKLGNWSAMPSCKASCKLPVKKATVVYQGERVKIQEKFKNGMLHGDKVSFFCKNKEKKCSYTEDAQCIDGTIEVPKCFKEHSSLAFWKTDASDVKPCGHHHHHH < 4.24

Return reported pIC50; argument: 12---: recombinant β2GPI deletion mutant with domains 1 and 2 (protein) GRTCPKPDDLPFSTVVPLKTFYEPGEEITYSCKPGYVSRGGMRKFICPLTGLWPINTLKCTPRVCPFAGILENGAVRYTTFEYPNTISFSCNTGFYLNGADSAKCTEEGKWSPELPVCAPIIGHHHHHH < 5.00

Return reported pIC50; argument: recombinant β2GPI domain 5 with GlyHis6 (----5) (protein) GRASCKLPVKKATVVYQGERVKIQEKFKNGMLHGDKVSFFCKNKEKKCSYTEDAQCIDGTIEVPKCFKEHSSLAFWKTDASDVKPCGHHHHHH < 4.33

Next molecule, pIC50 to be filled in.
Return reported pIC50; argument: ---45: recombinant β2GPI deletion mutant with domains 4, 5 (protein) GREVKCPFPSRPDNGFVNYPAKPTLYYKDKATFGCHDGYSLDGPEEIECTKLGNWSAMPSCKASCKLPVKKATVVYQGERVKIQEKFKNGMLHGDKVSFFCKNKEKKCSYTEDAQCIDGTIEVPKCFKEHSSLAFWKTDASDVKPCGHHHHHH < 4.40
